# Test system: NCI-H23
# protocolNotes: NCI tumour cell line growth inhibition, 48 h
The source made the active and inactive calls. No stated cut-off is given here; in the data, active = GI50 up to about 1.1 µM and inactive = higher.
A correct response names exactly one class from yes (active), no (inactive)

See these solved cases before continuing.
Req: Entry "CSCC[C@H](NC(=O)[C@H](CC(C)C)NC(=O)[C@@H](Cc1ccccc1)NC(=O)CNC(=O)[C@@H](NC(=O)[C@H](C)NC(=O)[C@H](Cc1c[nH]c2ccccc12)NC(=O)[C@H](CCC(N)=O)NC(=O)[C@H](N)CC(N)=O)C(C)C)C(N)=O" : call = ?
Resp: no

Req: Consider next the molecule "Cc1cccc(C)c1NC(=O)CCc1n[nH]c(=S)o1" in the same way.
Resp: no

Req: Consider next the molecule Cn1cc2ccccc2c1-c1nc(F)nc(Oc2ccc3c(c2)CC[C@@H]2C3CC[C@@]3(C)C2C[C@H](O)[C@@H]3O)n1 (stereo partly specified) in the same way.
Resp: no

Req: Consider next the molecule "COc1cc2cc(C(=O)N3C[C@H](CCl)c4c3cc(N)c3ccccc43)[nH]c2c(OC)c1OC" in the same way.
Resp: yes

Req: Consider next the molecule CSC(=S)CC(O)[C@@H]1CC2c3ccccc3C1c1ccccc12 (stereo partly specified) in the same way.
Resp: no

Further cases:
Req: Entry O=C(Nc1ccc2[nH]c(C(=O)N3CC(CCl)c4c3cc([N+](=O)[O-])c3ccccc43)cc2c1)Nc1ccc2[nH]c(C(=O)N3CC(CCl)c4c3cc([N+](=O)[O-])c3ccccc43)cc2c1 (stereo unspecified) : call = ?
Resp: no

Req: Consider next the molecule CSc1nc2c(c(=O)[nH]1)N=C(c1ccc(Cl)cc1)CC(c1ccccc1)N2 (stereo unspecified) in the same way.
Resp: no

Req: Consider next the molecule C=C1C(=O)OC2/C=C(\C)C(O)/C=C\C(C)(O)CC(OC(=O)/C(C)=C/C)C12 (stereo unspecified) in the same way.
Resp: no

Req: Consider next the molecule "Clc1ccc(CNc2nc3ccccc3nc2-c2cccs2)c(Cl)c1" in the same way.
Resp: no

* * *

# Test system: UO-31
# protocolNotes: NCI tumour cell line growth inhibition, 48 h
Activity calls are given as the source filed them. No stated cut-off is given here; in the data, active = GI50 up to about 1.1 µM and inactive = higher.
A correct response names exactly one class from active, inactive

Req: Entry CCc1c(CNc2ccc(C(=O)NC(CC(=O)O)C(=O)O)cc2)ccc2nc(N)nc(N)c12 (stereo not drawn) : call = ?
Resp: active

Further cases:
Req: Entry O=C1C2C3SC(c4cc5ccccc5cc43)C2C(=O)N1c1ccccc1 (stereo not drawn) : call = ?
Resp: inactive

Req: Consider next the compound "O=C(NCCCCCCCN1CCCCCCC1)C(C1CCCCC1)C1CCCCC1" in the same way.
Resp: inactive

* * *

# System: HOP-62
# protocolNotes: NCI tumour cell line growth inhibition, 48 h
Active and inactive are the calls of the source. No stated cut-off is given here; in the data, active = GI50 up to about 1.1 µM and inactive = higher.
A correct response names exactly one class from active, inactive

See these solved cases before continuing.
Req: Entry "N#Cc1nnc2ccccc2c1N" : call = ?
Resp: inactive

Req: Consider next the compound CCN1CC2=C(N=c3s/c(=C\c4ccc(Cl)cc4)c(=O)n3C2c2ccc(Cl)cc2)/C(=C/c2ccc(Cl)cc2)C1 (configuration not stated) in the same way.
Resp: inactive

Req: Consider next the compound "C=CCNC1=C2C[C@@H](C)C[C@@H](OC)[C@H](OC(=O)CCN)[C@H](C)/C=C(\C)[C@@H](OC(N)=O)[C@H](OC)/C=C\C=C(/C)C(=O)NC(=CC1=O)C2=O" in the same way.
Resp: inactive

Further cases:
Req: Entry "CN/N=C(/CC(=O)c1sc(NNC(C)=O)nc1C)C(=O)Nc1ccc(OC)cc1OC" : call = ?
Resp: inactive

Req: Consider next the compound Cc1cc2c(c(/C=N/c3ccccc3O)c1)OC1(C=C2)Oc2ccccc2C(=O)N1C (configuration not stated) in the same way.
Resp: inactive

Req: Consider next the compound "N#C[C@H](c1ccccn1)c1nc2ccccc2nc1Cl" in the same way.
Resp: inactive

Req: Consider next the compound "CC(=O)ONC(C(=O)C(C)(C)C)C(=O)C(C)(C)C" in the same way.
Resp: inactive

Req: Consider next the compound CC1(C)OC2[C@@H](CO[C@@]3([C@@H](O)CCO)OC(C)(C)O[C@@H]23)O1 (some centres not stated) in the same way.
Resp: inactive

Req: Consider next the compound "O=c1ccc(=O)c2c1c1[nH]c3ccccc3c1c1c(=O)c3ccccc3c(=O)c21" in the same way.
Resp: inactive

Req: Consider next the compound "O=C(Nc1ccccc1Cl)c1cc(S(=O)(=O)Nc2n[nH]c(=O)n2-c2ccccc2)c(S)cc1Cl" in the same way.
Resp: inactive

Req: Consider next the compound "CCN(CC)CCN1c2ccccc2Sc2ccc3ccccc3c21" in the same way.
Resp: inactive

Req: Consider next the compound "COC(=O)c1cc(O)nc(O)n1" in the same way.
Resp: inactive

Req: Consider next the compound CN(C)CC1CCCC/C1=N/O (configuration not stated) in the same way.
Resp: inactive

Req: Consider next the compound "COc1c(Cl)cc(NC(=S)C#N)cc1Cl" in the same way.
Resp: inactive

Req: Consider next the compound "Cc1nc(N(CCO)CCO)c2sc(=S)n(-c3ccccc3)c2n1" in the same way.
Resp: inactive

Req: Consider next the compound COC(=O)C(Cc1ccccc1)NC(=O)CCCNC(=O)OCc1ccccc1 (configuration not stated) in the same way.
Resp: inactive

Req: Consider next the compound CCOC(=O)NC(Nc1ccc(F)c(F)c1)(C(=O)OCC)C(F)(F)F (configuration not stated) in the same way.
Resp: inactive

Req: Consider next the compound "C[N+](C)(C)/C=N\c1cccc2c1CCCC2" in the same way.
Resp: inactive

Req: Consider next the compound "O=C(Cn1c(C(=O)/C=C/c2ccc(Cl)c(Cl)c2)nc2ccccc21)c1ccccc1" in the same way.
Resp: inactive

Req: Consider next the compound "O=c1c(Cc2c(O)ccc3ccccc23)nnc2sc(-c3nn4c(=O)c(Cc5c(O)ccc6ccccc56)nnc4s3)nn12" in the same way.
Resp: inactive

Req: Consider next the compound "CCCC(=O)Nc1cc(/C=C/C(=O)N2C[C@H]3C[C@@]34C2=CC(=O)c2[nH]cc(C)c24)n(C)c1" in the same way.
Resp: active

Req: Consider next the compound "N#Cc1c(-c2ccccc2)c(CN2CCCCC2)c(=O)n2c1[nH]c1ccccc12" in the same way.
Resp: inactive
